Target: T1, A33 antigen (full-length human A33) (human, UniProt Q99795 22-319)
T1 construct: Class I cell membrane protein of the Ig superfamily; also called GPA33; human A33 antigen
T1 sequence: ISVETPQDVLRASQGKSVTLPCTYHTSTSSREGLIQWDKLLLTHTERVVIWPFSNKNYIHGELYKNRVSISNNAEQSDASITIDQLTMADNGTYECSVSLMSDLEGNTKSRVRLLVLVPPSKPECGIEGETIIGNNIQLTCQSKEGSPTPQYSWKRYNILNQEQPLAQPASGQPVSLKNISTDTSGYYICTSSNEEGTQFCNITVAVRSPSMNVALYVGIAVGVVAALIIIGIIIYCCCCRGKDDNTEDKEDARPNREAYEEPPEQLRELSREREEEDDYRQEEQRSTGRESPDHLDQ
Assay: FCM competition on COLO205 cells; antibody 1 µg/ml, competitor mouse anti-A33 antibody 100 µg/ml
# key: entry, value: Inhibition (%)
# value in %; strip the unit string

binder="125M96ABA (antibody, V domains shown, Human IgG1 kappa antibody purified from the hybridoma (FERM BP-10108); also called 125M96ABA antibody) VH: QLQLQESGPGLVKPSETLSLTCTVSGGSISTSSYYWGWIRQPPGKGLEWIGTIYYNGSTYYSPSLKSRVSISVDTSKNQFSLKLSSVTAADTSVYYCARQGYDIKINIDVWGQGTTVTVSS VL: EIVLTQSPATLSLSPGERATLSCRASQSVSSYLAWYQQKPGQAPRLLIYVASNRATGIPARFSGSGSGTDFTLTISSLEPEDFAVYYCQQRSNWPLTFGGGTKVEIK" measured_number=22.8

Let us move to another entry and its Inhibition (%).
response.value for 125R5AAAA (antibody, V domains shown, Human IgG1 kappa antibody purified from the hybridoma (FERM BP-10103); also called 125R5AAAA antibody) VH: EVQLLESGGGLVQPGGSLRLSCAASGFTFSSYAMSWVRQAPGKGLEWVSDISGSGGYTYYADSVKGRFTISRDNSKKTLYLQMNSLRAEDTAVYYCAKTGDGSGSYSPDYWGQGTLVTVSS VL: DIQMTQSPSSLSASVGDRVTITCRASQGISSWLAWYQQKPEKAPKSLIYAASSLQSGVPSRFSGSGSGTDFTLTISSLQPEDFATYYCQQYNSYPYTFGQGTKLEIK (field: Inhibition (%)) = 63.9
